These measurements were taken from a melting point compilation (Tetko et al.; mined from patent text by program, amines drawn as free bases though some values may be those of a salt).

readout-name: melting point (°C)

molecule	readout-value
O=S(CCCCCCOc1ccc(C2=C(c3ccccc3)CCCc3cc(O)ccc32)cc1)Cc1ccccn1 (stereo not given)	80
O=C(Nc1ccc2ccc(Cl)nc2n1)c1cccc(Br)c1	224

###

melting point for assorted compounds

compound	melting point
COc1cccc2c1CC(CC(=O)O)C(=O)C2 (stereo not drawn)	129 to 131 °C
Nc1c(SC(F)(F)F)ncn1-c1c(Cl)cc(C(F)(F)F)cc1Cl	134 °C
COc1ccc(/C=C(\C#N)c2cccc(Br)c2)cc1OC1CCCC1	90 to 91.5 °C
CCOC(=O)c1sc(NC(=O)NN)nc1C	225 to 230 °C
CN(C)c1ccc(C2(c3ccc(N(C)C)cc3)NNC(=O)c3cc(N(C)C)ccc32)cc1	265 to 270 °C
OCc1ccc(-c2cc3c(Nc4ccc(F)c(Cl)c4)ncnc3[nH]2)cc1	> 300 °C
CCCc1ccccc1OCCCCCOc1coc(C=O)cc1=O	95 to 96 °C
Cc1ccc(C(O)CCCO)cc1 (stereo not drawn)	43 to 47 °C
CON(C)c1nc(C)cc(O)n1	128 to 129 °C
Cc1nn(C(CCCc2ccccc2)C(C)O)c2ncn(Cc3ccc(Cl)c(Cl)c3)c(=O)c12 (stereo not drawn)	160 °C
CS(=O)(=O)c1ccc(Oc2cc(OCc3ccccc3)c3[nH]c(C(=O)O)cc3c2)cc1	232 to 233 °C
Cc1ccc(O)c2c1CCC1C2CCC2(C)C(O)CCC12 (stereo not drawn)	226 to 229 °C
CC1=NC(NC(=O)Nc2cccc(C)c2)C(=O)N(CC(=O)NC(C)(C)C)c2c(C)cccc21 (stereo not drawn)	243 to 244 °C
O=C(CC1CC1)N[C@H]1CC[C@H](CCN2CCN(c3nccc4c3CCO4)CC2)CC1	193 °C
CC(C=NO)n1nnc2ccc(Oc3cc(F)c(C(F)(F)F)c(Cl)c3)cc21 (stereo not drawn)	148 to 151 °C
Oc1ccc(O)c2c1CC=CC2	208 to 211 °C
O=C(O)C1Nc2ccccc2-c2c([N+](=O)[O-])cnn21 (stereo not drawn)	203 to 205 °C
CC(C)(C)c1cc(C(=O)c2cccnc2)cc(C(C)(C)C)c1O	144 °C
CC(C)(C)C(NC(=O)CCc1ccccc1)Nc1c(Nc2cccnc2)c(=O)c1=O (stereo not drawn)	219 to 220 °C
COC(=O)CNC(=O)C1CSSC1	73 to 75 °C
COc1cccc(SC2CC(=O)N2)c1 (stereo not drawn)	55 to 56 °C
NCC1Cc2cccc(-c3ccsc3)c2O1 (stereo not drawn)	> 200 °C
Cc1c(-c2cc(C(C)(C)C)c(O)c(C(C)(C)C)c2)nc2n1CCS2	258 to 261 °C
CC(=O)OCCn1c(C)nc2ccccc2c1=O	158 to 160 °C
COC(=O)C(=O)C(CCCc1ccccc1)CS(=O)(=O)c1ccc(OC)cc1 (stereo not drawn)	95 °C
O=C(O)COc1c(Br)cc(C(=O)c2c(CCc3ccccc3)oc3ccccc23)cc1Br	163 to 164 °C
CCNC(=O)N1C(=O)[C@H](O)[C@@H]1c1ccccc1	141 to 142 °C
CC(NC(=O)Cc1cc(F)cc(F)c1)C(=O)NC1C(=O)N(Cc2ccccc2)Cc2ccccc21 (stereo not drawn)	144 to 145 °C
CN(C)c1ccc(C(=O)CC(=O)C(C)(C)C)cc1	61.5 to 61.8 °C
Cc1ccc(C=CC(=O)C=Cc2ccc([N+](=O)[O-])cc2)cc1	182 to 184 °C
O=C(O)Cc1cc2c(c(-c3ccccc3)c1)NC(C(F)(F)F)CC2 (stereo not drawn)	131 to 132 °C
CC(Cl)=CCOc1ccc(C(=O)O)nc1	96 to 98 °C
CC(C)C[C@H](NC(=O)OCc1ccccc1)C(=O)N[C@@H](Cc1ccccc1)C(=O)COCc1ccco1	94 to 95 °C
CC(c1ccc(F)cc1)N1CCN(c2cc(Oc3cccc4ccncc34)ncn2)CC1 (stereo not drawn)	114 °C
COc1ccccc1N1CCN(NC(=O)c2ccc(Cl)c(S(N)(=O)=O)c2)CC1	232 to 235 °C
OC(Cn1cncn1)(c1ccc(Cl)cc1)C(Cl)(Cl)C(Cl)Cl (stereo not drawn)	168 to 169 °C
CC(C)C(=O)Nc1cc([N+](=O)[O-])cc([N+](=O)[O-])c1	157 to 159 °C
COc1cc(Cl)ccc1CBr	42 to 45 °C
CC1(c2nnc(S(C)(=O)=O)s2)CC(F)(F)C1(F)Cl (stereo not drawn)	63 °C
CCOC1=CC(C)=C(C(=O)OC)C(C)(C)C1	67 to 69 °C
CC(CCCc1ccc(F)cc1)c1cc(O)c2c(c1)OC(C)(C)C1=C2CN(CC(=O)NC(N)=O)CC1 (stereo not drawn)	133 to 134 °C
NC(=O)N(O)CCNC(=O)c1cccc(Oc2cccc(C(F)(F)F)c2)c1	126 to 128 °C
O=C(O)CCc1cnoc1-c1ccc(Br)cc1	164 to 165 °C
